system: T1, full-length human IL-36R on cells (human, UniProt Q9HB29 20-575)
T1 sequence (looked up): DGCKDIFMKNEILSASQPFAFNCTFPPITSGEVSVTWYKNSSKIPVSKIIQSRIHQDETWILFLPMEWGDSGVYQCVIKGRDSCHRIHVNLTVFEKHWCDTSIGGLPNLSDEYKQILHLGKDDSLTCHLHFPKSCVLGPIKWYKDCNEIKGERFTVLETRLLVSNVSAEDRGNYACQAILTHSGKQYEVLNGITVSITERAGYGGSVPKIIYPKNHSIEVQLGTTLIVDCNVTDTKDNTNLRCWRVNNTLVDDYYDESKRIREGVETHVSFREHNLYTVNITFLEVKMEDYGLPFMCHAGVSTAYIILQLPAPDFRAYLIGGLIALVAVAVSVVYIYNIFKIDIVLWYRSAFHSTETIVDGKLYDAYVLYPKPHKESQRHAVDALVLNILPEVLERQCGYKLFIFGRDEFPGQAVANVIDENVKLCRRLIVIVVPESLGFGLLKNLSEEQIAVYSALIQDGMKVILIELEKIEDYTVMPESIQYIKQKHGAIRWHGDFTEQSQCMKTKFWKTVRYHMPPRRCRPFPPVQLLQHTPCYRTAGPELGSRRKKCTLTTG
method: cell-based or functional assay
quantity_kind: Max Inhibition (%), NFκB-luciferase, 10 pM hIL-36γ
Unit % implied. Number only.

Given item H4H14758P (antibody, human IgG4 S228P, kappa, V domains shown) VH: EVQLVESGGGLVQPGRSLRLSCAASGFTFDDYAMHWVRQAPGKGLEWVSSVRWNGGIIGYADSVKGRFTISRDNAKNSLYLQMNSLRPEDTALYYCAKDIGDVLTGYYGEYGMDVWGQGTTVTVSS VL: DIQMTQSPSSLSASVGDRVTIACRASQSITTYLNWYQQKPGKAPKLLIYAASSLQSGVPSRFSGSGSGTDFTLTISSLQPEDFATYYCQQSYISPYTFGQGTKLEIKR , the value recorded as its Max Inhibition (%), NFκB-luciferase, 10 pM hIL-36γ is 57

// field: Max Inhibition (%), NFκB-luciferase, 10 pM hIL-36γ; key: H4H14731P (antibody, human IgG4 S228P, kappa, V domains shown) VH: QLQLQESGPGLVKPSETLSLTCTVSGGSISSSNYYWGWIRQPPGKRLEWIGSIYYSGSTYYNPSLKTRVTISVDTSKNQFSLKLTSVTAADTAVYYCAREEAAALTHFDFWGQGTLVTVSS VL: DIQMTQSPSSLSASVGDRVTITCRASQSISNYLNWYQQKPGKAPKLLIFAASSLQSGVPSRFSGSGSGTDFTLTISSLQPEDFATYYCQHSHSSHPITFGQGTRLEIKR ; value = 99

Input H4H14699P2 (antibody, human IgG4 S228P, kappa, V domains shown, Fully human anti-IL-36R antibody) VH: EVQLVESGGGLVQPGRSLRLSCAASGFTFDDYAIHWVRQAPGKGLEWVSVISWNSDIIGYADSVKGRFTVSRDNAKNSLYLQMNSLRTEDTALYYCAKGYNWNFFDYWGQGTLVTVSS VL: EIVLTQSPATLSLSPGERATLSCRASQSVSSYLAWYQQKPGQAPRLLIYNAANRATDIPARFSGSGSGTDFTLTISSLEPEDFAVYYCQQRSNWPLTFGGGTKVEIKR . Output Max Inhibition (%), NFκB-luciferase, 10 pM hIL-36γ: 99

The binder identified as H4H14757P (antibody, human IgG4 S228P, kappa, V domains shown) VH: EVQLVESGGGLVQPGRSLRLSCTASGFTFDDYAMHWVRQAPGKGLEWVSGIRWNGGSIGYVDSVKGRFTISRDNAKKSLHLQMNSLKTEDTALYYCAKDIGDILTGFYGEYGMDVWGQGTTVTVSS VL: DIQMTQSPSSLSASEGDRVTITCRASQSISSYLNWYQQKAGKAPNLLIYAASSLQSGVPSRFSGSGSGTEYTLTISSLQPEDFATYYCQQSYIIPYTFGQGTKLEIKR registered its Max Inhibition (%), NFκB-luciferase, 10 pM hIL-36γ at 87

// recorded Max Inhibition (%), NFκB-luciferase, 10 pM hIL-36γ for H4H14700P2 (antibody, human IgG4 S228P, kappa, V domains shown) VH: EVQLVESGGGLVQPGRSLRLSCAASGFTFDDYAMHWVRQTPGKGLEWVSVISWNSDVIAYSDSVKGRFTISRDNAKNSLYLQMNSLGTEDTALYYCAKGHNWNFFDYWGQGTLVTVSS VL: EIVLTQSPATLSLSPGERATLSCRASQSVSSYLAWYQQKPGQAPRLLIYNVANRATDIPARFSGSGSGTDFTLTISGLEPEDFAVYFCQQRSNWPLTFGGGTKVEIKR : 100

Reported Max Inhibition (%), NFκB-luciferase, 10 pM hIL-36γ ( H4H14706P2 (antibody, human IgG4 S228P, kappa, V domains shown) VH: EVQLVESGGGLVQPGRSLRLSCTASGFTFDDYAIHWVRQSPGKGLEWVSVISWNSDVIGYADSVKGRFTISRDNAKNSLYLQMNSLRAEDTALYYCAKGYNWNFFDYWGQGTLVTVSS VL: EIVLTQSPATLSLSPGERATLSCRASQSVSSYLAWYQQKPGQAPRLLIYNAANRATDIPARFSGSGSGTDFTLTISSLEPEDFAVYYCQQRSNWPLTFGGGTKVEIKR ) = 99
